The measurements presented in this section are drawn from patent US20090118135A1.

- target_system: GST-Bcl-B (Homo sapiens, UniProt Q9HD36)
- Sequence (Q9HD36 1-182 limits assumed): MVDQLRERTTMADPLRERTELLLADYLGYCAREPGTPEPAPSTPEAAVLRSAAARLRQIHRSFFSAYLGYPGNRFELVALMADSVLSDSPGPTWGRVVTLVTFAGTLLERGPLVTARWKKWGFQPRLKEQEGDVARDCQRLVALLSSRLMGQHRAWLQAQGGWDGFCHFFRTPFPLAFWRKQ
- assay_remarks: Bcl-B/FITC-TR3-r8 fluorescence polarization competition (displacement) assay, HTS and dose-response
- stated_conditions: read-out: Result Value (% Inhibition)
Give inhibition at 0.02 µM for every item shown.
Field: numeric (%). Do not append units.

Q: // fetch inhibition at 0.02 µM given entry O=C1c2c(O)ccc(O)c2C(=O)c2c(NCCNCCO)ccc(NCCNCCO)c21
A: 148

Q: // fetch inhibition at 0.02 µM given entry O=C(Nc1cc(C(=O)Nc2ccc(S(=O)(=O)O)cc2S(=O)(=O)O)cc(C(=O)Nc2ccc(S(=O)(=O)O)cc2S(=O)(=O)O)c1)Nc1cc(C(=O)Nc2ccc(S(=O)(=O)O)cc2S(=O)(=O)O)cc(C(=O)Nc2ccc(S(=O)(=O)O)cc2S(=O)(=O)O)c1
A: 64.7

Q: // fetch inhibition at 0.02 µM given entry O=c1cc(O)cc(/C=C/c2ccc(O)c(O)c2)o1
A: 77

Q: // fetch inhibition at 0.02 µM given entry NC(Cc1cc(O)c(O)cc1O)C(=O)O (stereo not shown)
A: 136
